# Tested target: c-Src SH2;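 note: peptide library displayed on the E. coli surface as eCPX fusions, selected cells deep-sequenced, score is each peptide's frequency after selection divided by its frequency in the input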
# Assay remarks: SH2 binding enrichment of the phosphorylated peptide, bacterial display (enrichment ratio); higher = better substrate or ligand; peptides without Tyr show the background
SH2 binding enrichment reference
Kindly provide the number alone.

Solved cases below.
# Entry sequence, Tested target, Observed measurement
measured = [
    ("AHAGEYGEEAL [HBA1_Y25_A27E]", "c-Src SH2", 0.473),
    ("ENELTYFCFKK [CD59_Y86_C89Y_YF]", "c-Src SH2", 0.414),
    ("DEDYLCREELA [POR_Y575_Y575C]", "c-Src SH2", 0.444),
    ("TKFVAYIESQG [KDM4B_Y34_N29T_YF]", "c-Src SH2", 0.6),
]

I am curious: what SH2 binding enrichment value has been reported for HEEKVYLSRGD [CRACR2A_Y141] ? 0.366

I am curious: what SH2 binding enrichment value has been reported for PVQAAYQNVVA [HBB_Y131_K133N] ? 3.07

I am curious: what SH2 binding enrichment value has been reported for RLCQDYDTIGP [ANK1_Y1073] ? 1.61

I am curious: what SH2 binding enrichment value has been reported for SRASYYRKGGC [ALK_Y1283_Y1278S] ? 0.607

I am curious: what SH2 binding enrichment value has been reported for IVKAYYVHARA [AIPL1_Y268_R270H] ? 0.823

I am curious: what SH2 binding enrichment value has been reported for NPQKSCFIRLF [WAS_Y83_Y83C_YF] ? 0.631

I am curious: what SH2 binding enrichment value has been reported for SSNLFYRCLTA [CNGA3_Y169_W171C_YF] ? 0.399

I am curious: what SH2 binding enrichment value has been reported for IVEELYAIPPD [PEAK1_Y797_S792I] ? 0.564

I am curious: what SH2 binding enrichment value has been reported for SRIWVYNHFRW [BRCA2_Y2621_YF] ? 1.12

I am curious: what SH2 binding enrichment value has been reported for QEIATYRRQLE [KRT14_Y415_L418Q] ? 0.593

I am curious: what SH2 binding enrichment value has been reported for FTRNFYVQAVL [CYBA_Y88_R90Q_YF] ? 0.421

I am curious: what SH2 binding enrichment value has been reported for LNEAVYTKMMT [G6PD_Y401_P396L] ? 1.61

I am curious: what SH2 binding enrichment value has been reported for SMAKYYASGIA [ACADSB_Y373_E376G] ? 0.578

I am curious: what SH2 binding enrichment value has been reported for TEGNGYISFNE [LCP1_Y28_D24E] ? 14.1

I am curious: what SH2 binding enrichment value has been reported for CTTIFYNFMCN [TP53_Y234_H233Y_YF] ? 1.45

---

# Tested target: EPHB2 (UniProt P29323)
# Sequence (P29323 whole entry, looked up): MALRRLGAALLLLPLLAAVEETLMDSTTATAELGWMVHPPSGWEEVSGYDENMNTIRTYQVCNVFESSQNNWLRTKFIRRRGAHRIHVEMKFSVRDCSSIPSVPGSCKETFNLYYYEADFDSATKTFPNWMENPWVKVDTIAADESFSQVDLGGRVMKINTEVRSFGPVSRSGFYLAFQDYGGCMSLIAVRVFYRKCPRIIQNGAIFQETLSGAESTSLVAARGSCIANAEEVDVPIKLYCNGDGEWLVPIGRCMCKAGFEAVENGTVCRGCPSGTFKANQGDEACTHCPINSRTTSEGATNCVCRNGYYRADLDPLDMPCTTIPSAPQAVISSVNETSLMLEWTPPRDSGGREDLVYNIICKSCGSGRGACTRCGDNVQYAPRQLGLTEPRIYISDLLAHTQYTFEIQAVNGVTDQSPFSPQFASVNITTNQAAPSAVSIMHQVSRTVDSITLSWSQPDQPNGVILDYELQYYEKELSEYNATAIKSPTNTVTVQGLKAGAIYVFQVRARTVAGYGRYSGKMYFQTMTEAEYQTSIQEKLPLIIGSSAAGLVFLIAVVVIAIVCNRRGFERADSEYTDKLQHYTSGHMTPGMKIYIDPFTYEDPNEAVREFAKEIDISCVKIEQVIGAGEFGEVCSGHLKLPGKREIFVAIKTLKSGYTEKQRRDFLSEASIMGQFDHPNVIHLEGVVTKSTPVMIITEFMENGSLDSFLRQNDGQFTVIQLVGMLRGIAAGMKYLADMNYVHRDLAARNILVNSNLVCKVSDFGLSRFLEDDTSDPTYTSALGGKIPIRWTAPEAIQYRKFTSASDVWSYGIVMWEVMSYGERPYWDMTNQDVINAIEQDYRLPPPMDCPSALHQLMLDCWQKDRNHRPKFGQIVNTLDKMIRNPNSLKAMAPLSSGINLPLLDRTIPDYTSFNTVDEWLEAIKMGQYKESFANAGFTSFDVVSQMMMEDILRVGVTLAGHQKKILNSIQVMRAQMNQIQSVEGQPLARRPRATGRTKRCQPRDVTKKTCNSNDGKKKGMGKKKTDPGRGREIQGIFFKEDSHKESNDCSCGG
# Assay remarks: phosphorylation enrichment, bacterial display (enrichment ratio); higher = better substrate or ligand; peptides without Tyr show the background
Record label 1 whenever phosphorylation enrichment is at 0.5 or higher; record label 0 when lower.

# Entry sequence, Tested target, Group
data = [
    ("MSPPGYKLVNG [GJA1_Y286_T290N]", "EPHB2 (UniProt P29323)", "label 0"),
    ("ARSHIYTFASC [MEFV_Y741]", "EPHB2 (UniProt P29323)", "label 1"),
    ("KLQKKYGPIFS [CYP17A1_Y60_YF]", "EPHB2 (UniProt P29323)", "label 0"),
    ("EKSREYHRLYE [PIK3R1_Y463_D464H]", "EPHB2 (UniProt P29323)", "label 0"),
    ("AQPHTYEEPGR [EPHA8_Y616_E612Q]", "EPHB2 (UniProt P29323)", "label 1"),
    ("SGPRRYTIAAL [TTR_Y125]", "EPHB2 (UniProt P29323)", "label 1"),
]

Is it the case that QAEEWYFGKMG [YES1_Y159] has phosphorylation enrichment reaching or exceeding 0.5? label 0

Is it the case that VMTSKYRGGGG [HBA1_Y141_L137M] has phosphorylation enrichment reaching or exceeding 0.5? label 0

Is it the case that SGTYQYIIAKF [FOXL2_Y83_I80T] has phosphorylation enrichment reaching or exceeding 0.5? label 1
